Hello, the source for this data is PubChem BioAssay, in case you need it.

# runDescription: blockers of RIG-like receptor reporter activation – cell-based, Sendai virus stimulus, luciferase, 10K MLSCN set, TLR/RLR signaling modifier project, primary screen (AID 602276);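 note: firefly luciferase from ISG56 promoter only with Renilla not read in this screen; 0% = Sendai virus plus DMSO and 100% = medium plus DMSO without virus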
# cond: HEK293 RL24 IRF3 luciferase reporter, at 10 µM, stronger effect = higher value

compound | inhibition, %
O=C(CCSc1ccccc1)N1CCN(C(=O)c2ccco2)CC1 | -23.3
CCCCNC(=O)Nc1ccnn1C1CCCCC1 | 17
Cc1cccc(-n2ccnc2SCC(=O)Nc2cc(C)on2)c1 | -19
CCCC1O[C@@H]2C[C@H]3[C@@H]4CCC5=CC(=O)C=C[C@]5(C)[C@H]4[C@@H](O)C[C@]3(C)[C@]2(C(=O)CO)O1 (stereo partly specified) | 0.287
CC1CCN(S(=O)(=O)c2ccc(NC(=O)CSc3nnnn3C)cc2)CC1 | 10.9
CN(C(=O)c1c(Cl)nc2sccn12)C1CCCCC1 | 10.8
CCOC(=O)/C=C(\C)Sc1cc(=O)oc2ccccc12 | 25.8
COc1ccc2c(c1)CCc1c(C(=O)N3CCCc4ccccc43)noc1-2 | -24
CC(=O)Nc1ccc(Oc2cc(C#N)c(C#N)cc2N2CCCCCC2)cc1 | 13.8
NC(=O)c1nsnc1-c1ccccc1O | -10.2
COc1ccc(-n2cc(-c3ccccc3)c3c(N4CCN(CCO)CC4)ncnc32)cc1 | 13.2

###

# inhibition per record follows
# runDescription: blockers of RIG-like receptor reporter activation – cell-based, Sendai virus stimulus, luciferase, 10K MLSCN set, TLR/RLR signaling modifier project, primary screen (AID 602276);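 note: firefly luciferase from ISG56 promoter only with Renilla not read in this screen; 0% = Sendai virus plus DMSO and 100% = medium plus DMSO without virus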
# cond: HEK293 RL24 IRF3 luciferase reporter, at 10 µM, stronger effect = higher value
reportedMetric: inhibition (%)

compound | measuredNumber
Nc1nnc(SCC(=O)N2CCc3ccccc32)n1-c1ccccc1 | 17.7
CCSC1=C(C#N)C(c2cccc(OC)c2)CC(=O)N1 (stereo unspecified) | 14.9
c1nc(NCC2CCCO2)c2[nH]cnc2n1 (stereo unspecified) | 13.9
Cc1cc(C)n2nc3nc(N4CCCCC4)nc(-c4ccco4)c3c2n1 | 12.6
N#CC1=C(N)N(c2ccccc2)C2=C(C(=O)CCC2)C1c1cccs1 (stereo unspecified) | -12.6
CS(=O)(=O)c1ncc(Cl)c(C(=O)Nc2ccc(N3CCOCC3)cc2)n1 | 21.4
Cc1ccc(-n2c(=O)[nH]c3c(C(N)=O)nc(CC(C)C)nc32)cc1 | -2.4
O=C1CN(c2ccccc2F)C(=O)CN1c1ccccc1F | 14.9
Cc1ccccc1NC(=O)C1CCN(c2cnccn2)CC1 | 5.1
COC(=O)c1[nH]c2cccc(C)c2c1NC(=O)CN1CCCc2ccccc21 | 2.04
CCCS(=O)(=O)N1CCN(C(=O)CCC2CCCC2)CC1 | 10.9

###

# runDescription: endothelial E-selectin expression blockers – imaging, HUVEC, immunofluorescence, MLSMR starter and 10KST1 sets, primary screen (AID 487);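 for nuclei count: 100% = median nuclei count of all wells on the same plate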
# cond: HUVEC TNFalpha-induced E-selectin immunofluorescence imaging, at 2 µM; measured here: cell number, toxicity

compound | nuclei count [%]
CCN(CC)CCCN(Cc1cc2cc(OC)ccc2[nH]c1=O)C(=O)Nc1ccccc1 | 105
O=C(NCc1ccccn1)c1ccc2nc(-c3ccco3)c(-c3ccco3)nc2c1 | 103
C=CCn1c(=O)[nH]c2cc(C(=O)N3CCN(c4cc(C)ccc4C)CC3)ccc2c1=O | 127
CCc1ccc2c(CN(CC)Cc3nc4ccccc4c(=O)[nH]3)cc(=O)oc2c1 | 107
O=c1oc2ccccc2n1CCn1c2ccccc2c2nc3ccccc3nc21 | 109
C=CCn1c(COc2ccccc2F)nnc1SCC(=O)N1CC(=O)Nc2ccccc21 | 121
CC1CCN(CCC(=O)Nc2ccc(Br)cc2)CC1 | 179
COCC(=O)Nc1sc2c(c1C(=O)OC)C(C(=O)OC)CC2 (stereo not drawn) | 105
CCCCCCNC(=O)Cc1c(O)c2ccccc2[nH]c1=O | 103
O=C(NC1CCCC1)c1c[nH]c2ccc(F)cc2c1=O | 104
COCCn1c(N)c(C(=O)Nc2sc3c(c2C(=O)OC)CCCC3)c2nc3ccccc3nc21 | 100
c1nc(NCC2CCCO2)c2[nH]cnc2n1 (stereo not drawn) | 118
CCC(=O)c1ccc(OCC(=O)N2CCc3cc(OC)c(OC)cc3C2)cc1 | 99.5
C[N+](C)(C)CCCCCCCCCC[N+](C)(C)C | 126
CCOc1cc(C(=O)N2CCN(c3ccccc3)CC2)cc(OCC)c1OCC | 90.3
C1COC(NC(C2CC2)C2CC2)=N1 | 116
Cc1cc(N/C=C/C(=O)c2cccc3ccccc23)no1 | 95.6
COc1ccc(-n2ncc3c(NCc4ccc5c(c4)OCO5)ncnc32)cc1 | 105
CCOC(=O)C1CCCN(C(=O)c2ccc(CS(=O)(=O)Cc3ccccc3C)o2)C1 (stereo not drawn) | 93.9
CCNc1oc(COc2cccc(C)c2)nc1C#N | 111
COc1cccc(OC)c1C(=O)N1CCOCC1 | 126
Clc1ccccc1OCc1nn2c(-c3ccncc3)nnc2s1 | 118
COC(=O)c1c(NC(=O)c2ccc(S(=O)(=O)N3CCOCC3)cc2)sc2c1CCN(C)C2 | 114

###

# runDescription: endothelial E-selectin expression blockers – imaging, HUVEC, immunofluorescence, MLSMR starter and 10KST1 sets, primary screen (AID 487);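 for nuclei count: 100% = median nuclei count of all wells on the same plate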
# cond: HUVEC TNFalpha-induced E-selectin immunofluorescence imaging, at 2 µM; measured here: cell number, toxicity
# nuclei count per record follows
reportedMetric: nuclei count (%)

molecule | unitTag | measuredNumber
Cc1ccc2c(c1C)NC(C)CC2C (stereo unspecified) | % | 100
O=C(CCCn1c(=S)[nH]c2ccccc2c1=O)N1CCCCC1 | % | 106
c1coc(-c2nnc(-c3cccs3)o2)c1 | % | 115
COc1ccc(-n2c(C)c(C(C)=O)c3cc(O)ccc32)cc1 | % | 135
CCOC(=O)C1CCN(c2c(NCCCN(CC)c3ccccc3)c(=O)c2=O)CC1 | % | 95.4
CCn1c(Cc2ccc(OC)cc2)nnc1SCC(=O)Nc1cccc(C(=O)OC)c1 | % | 107
O=C(CCn1c(=O)sc2ccccc21)Nc1cccnc1 | % | 110
O=C(NC1CCc2ccccc21)C1CCN(S(=O)(=O)c2ccc(-n3cnnn3)cc2)CC1 (stereo unspecified) | % | 91.8
N=c1c(C(=O)NCc2ccc(F)cc2)cc2c(=O)n3ccccc3nc2n1CCCN1CCOCC1 | % | 122
CN(C)Cc1c(O)ccc2oc(Cc3ccccc3)cc12 | % | 104
O=C(c1ccccc1)c1ccc(N2CCOCC2)c(NC(=O)c2ccco2)c1 | % | 119

###

# inhibition per record follows
# runDescription: endothelial E-selectin expression blockers – imaging, HUVEC, immunofluorescence, MLSMR starter and 10KST1 sets, primary screen (AID 487);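 for inhibition: signal is fraction of cell area covered by stained E-selectin grains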
# cond: HUVEC TNFalpha-induced E-selectin immunofluorescence imaging, at 2 µM; stronger effect = higher value

compound | inhibition (%)
CCN1CCN(C(=O)c2ccc3c(=O)n(C4CCCC4)c(=S)[nH]c3c2)CC1 | -19.6
COc1cccc(OC)c1C(=O)Nc1cccc(C(C)=O)c1 | 15.5
CN(C)CCCN1c2ccccc2Sc2ccccc21 | 3.6
COC(=O)c1ccccc1NC(=O)Nc1cc(C)cc(C)n1 | 10.8
COc1cccc(Nc2c(F)c(F)c(F)c(F)c2C(=O)O)c1 | -11.9
COc1cc(-c2noc(-c3cccc(Cl)c3)n2)cc(OC)c1OC | -33.7
CCc1cccc2c3c([nH]c12)C(CC)(CC(=O)O)OCC3 (configuration not stated) | -122
Cc1ccc2nc(SCC(=O)NCc3ccco3)c(C#N)cc2c1 | 1.8
CN(C)Cc1c(O)ccc2oc(Cc3ccccc3)cc12 | -12.9
CC1CCN(C(=O)c2ccc(C(=O)N3CCC(C)CC3)cc2)CC1 | 33.2
S=c1[nH]nc(COc2ccccc2)n1C1CCCCC1 | 48.2
CN(C)CCOC(c1ccccc1)c1ccccc1 (tested in a mixture with another compound) | -105
CC(C)CNC(=O)c1ccccc1NC(=O)CN(c1ccc2c(c1)OCCO2)S(C)(=O)=O | -0.7
CCCc1nc2ccccc2c(=O)n1NC(=O)c1c(O)c2cccc3c2n(c1=O)CCC3 | -150
Cc1cc2c(nn1)CCC/C2=N\O | 14.6
COc1ccccc1NC(=O)C1=C(C)Nc2ncnn2C1c1ccc(C)o1 (configuration not stated) | 56.5
COc1ccc(C(=O)N(Cc2ccco2)C(C(=O)NC2CCCC2)c2ccc(O)cc2)cc1OC (configuration not stated) | 14.6
Cn1cccc1-c1nc2ccc(NC(=O)c3ccco3)cc2[nH]1 | -8.2
COc1cc(C(=O)NCC(=O)n2nc(C)cc2C)cc(OC)c1OC | 19
CC1(C)CC(=O)C2=C(C1)N(Cc1ccco1)C(=O)C2(NC(=O)C1CCCCC1)C(F)(F)F (configuration not stated) | -51
Clc1ccc(SCCn2ccnc2)cc1 | -245
O=C(c1ccc2c(c1)OCO2)N1CCNc2ccccc2C1 | -14.3
CN(C)CCCC1(c2ccc(F)cc2)OCc2cc(C#N)ccc21 (configuration not stated) | -57.3
COC(=O)c1ccc(-c2ccc(CNCC(O)c3ccccc3)o2)cc1 (configuration not stated) | -27.1
CC(=O)CC(=O)Nc1ccccc1NC(C)=O | -17.4
CCCCCCNS(=O)(=O)c1ccc(Cl)s1 | -52.4
Cc1cccc(OCC(=O)Nc2ccccc2N2CCN(C(=O)C(C)C)CC2)c1C | -26.3
O=C(CNS(=O)(=O)c1ccc(Br)s1)N1CCCC1 | -164
CCN1C(=O)OC2(CCCCC2)C1(C)O (configuration not stated) | 9.3
Cc1ccc2c(c1C)NC(C)CC2C (configuration not stated) | 35.5
CN(Cc1ccccc1)Cc1nc2c([nH]1)c(=O)[nH]c(=O)n2C | 69.5
CNC(=O)CN(c1cc(C)ccc1OC)S(=O)(=O)c1ccc(C)cc1 | 6.9
CCc1ccc(NS(=O)(=O)c2ccc3[nH]cc(C(=O)N4CCCCC4)c(=O)c3c2)cc1 | 2.5
CCNCCNC(=O)c1c(O)c2ccccc2n(CC)c1=O | 29.6
CCn1cc(C(=O)O)c(=O)c2cnc(N3CCNCC3)nc21 | -26.1
CCOC(=O)c1nnn(-c2nonc2NC(C)=O)c1C | -39.1
COc1ccc(C2=Nn3c(nnc3-c3cccnc3)SC2)cc1 | 25.5
Cc1cccc2cc(CN(Cc3nnnn3C3CCCC3)C3CCCCC3)c(=O)[nH]c12 | -44
CCN(CC)c1ccc(NC(=O)c2[nH]c(C)c(C(C)=O)c2C)c(C)c1 | -105
Cc1ccc(S(=O)(=O)NCCc2ccncc2)cc1 | -47.2
COC(=O)C1(C(=O)OC)Sc2ccccc2C1=O | 30.1
CSc1nnc(-c2cnccn2)n1C | -73.6
CCS(=O)(=O)N1CCC(C(=O)NC2CCCCC2)CC1 | 15.2
Cc1ccc(C)c(C(=O)NC2CC(C)(C)NC(C)(C)C2)c1 | -8.2
CCCCCCC(=O)c1c(C)[nH]c(C(=O)OCC)c1C | -54.5
CCOC(=O)C1CCCN(C(=O)CNS(=O)(=O)c2ccc(Br)s2)C1 (configuration not stated) | -33.6
Nc1nc(-c2ccccc2Br)cs1 | -133
